tested on: BTK activity measured by IL-6 production in primary CD19+ cells; assay: Inhibition of IL-6 production in B cells co-stimulated with ODN 2006 and anti-hIgD; format: cell-based; details: B-cell, anti-human IgD + ODN 2006, 18-24 hours
Output 1 (yes) for records whose IC50 is lower than 6 nM, 0 (no) for records at or above 6 nM.

Some solved cases for reference:
* CC#CC(=O)N1CC[C@]2(C1)C[C@H](n1nc(-c3ccc(COC)cc3)c(C(N)=O)c1N)C2 [Example 5] | 1 (yes)
* CC#CC(=O)N1CC[C@]2(C1)C[C@H](n1nc(-c3ccc(CCO)cc3)c(C(N)=O)c1N)C2 [Example 25] | 0 (no)
* CC#CC(=O)N1CC[C@]2(C1)C[C@H](n1nc(-c3ccc(C(O)C(C)C)cc3)c(C(N)=O)c1N)C2 (some centres unmarked) [Example 19] | 1 (yes)

Please state whether IC50 is below 6 nM for CC#CC(=O)N1CC[C@]2(C1)C[C@H](n1nc(-c3ccc(S(C)(=O)=O)cc3)c(C(N)=O)c1N)C2 [Example 27]
0 (no)

For CC#CC(=O)N1CCC[C@]2(C1)C[C@H](n1nc(-c3ccc(COC)cc3)c(C(N)=O)c1N)C2 [Example 9] , is the recorded IC50 below the cut-off of 6 nM?
0 (no)

---

Data export: IC50 values recorded with full-length human His-tagged BTK (Homo sapiens, UniProt Q06187).
Sequence (Q06187 whole entry): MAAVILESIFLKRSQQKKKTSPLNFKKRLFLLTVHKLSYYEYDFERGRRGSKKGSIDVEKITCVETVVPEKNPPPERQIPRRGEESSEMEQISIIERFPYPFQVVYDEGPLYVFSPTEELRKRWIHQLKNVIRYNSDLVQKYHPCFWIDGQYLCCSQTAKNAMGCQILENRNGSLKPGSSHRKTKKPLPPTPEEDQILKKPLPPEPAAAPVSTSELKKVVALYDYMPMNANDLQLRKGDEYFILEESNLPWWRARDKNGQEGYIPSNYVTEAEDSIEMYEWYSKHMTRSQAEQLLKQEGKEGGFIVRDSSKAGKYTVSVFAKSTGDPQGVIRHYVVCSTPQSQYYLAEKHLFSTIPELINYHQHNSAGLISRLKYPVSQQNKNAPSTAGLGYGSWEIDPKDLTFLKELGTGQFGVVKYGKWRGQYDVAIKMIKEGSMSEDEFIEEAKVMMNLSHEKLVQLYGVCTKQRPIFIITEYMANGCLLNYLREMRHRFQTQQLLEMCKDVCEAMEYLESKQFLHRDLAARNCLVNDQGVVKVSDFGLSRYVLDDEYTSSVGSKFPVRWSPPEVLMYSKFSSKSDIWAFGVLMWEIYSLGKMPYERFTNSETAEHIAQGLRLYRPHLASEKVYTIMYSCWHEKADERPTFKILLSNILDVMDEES

- COCc1ccc(-c2nn([C@H]3C[C@@]4(CCN(C(=O)C#CC5CCC5)C4)C3)c(N)c2C(N)=O)cc1 [Example 14]: 0.6 nM
- C=CC(=O)N1CCC[C@]2(C1)C[C@@H](n1nc(-c3ccc(C(O)C4CC4)cc3)c(C(N)=O)c1N)C2 (stereo partly drawn) [Example 23]: 68 nM
- CC#CC(=O)N1CC[C@]2(C1)C[C@H](n1nc(-c3ccc(C(C)OCC)cc3)c(C(N)=O)c1N)C2 (stereo partly drawn) [Example 15]: 3.6 nM
- C=CC(=O)N1CCC[C@]2(C1)C[C@H](n1nc(-c3ccc(COC)cc3)c(C(N)=O)c1N)C2 [Example 7]: 450 nM
- CCOC(C)c1ccc(-c2nn([C@H]3C[C@@]4(CCN(C(=O)C#CC5CC5)C4)C3)c(N)c2C(N)=O)cc1 (stereo partly drawn) [Example 17]: 1.2 nM

Next item in the queue.
What IC50 appears in the records for this compound with full-length human His-tagged BTK (Homo sapiens, UniProt Q06187)? CC#CC(=O)N1CCC[C@]2(C1)C[C@H](n1nc(-c3ccc(COC)cc3)c(C(N)=O)c1N)C2 [Example 9]
8.2 nM

---

biological target: full-length human His-tagged BTK (Homo sapiens, UniProt Q06187)
ENDPOINT NAME: log10(IC50) (log10 of the value in nM)
Please keep in mind that the values are log10 of IC50 expressed in nM.

* C=CC(=O)N1CC2(CC(n3nc(-c4ccc(C(C)OC)cc4)c(C(N)=O)c3N)C2)C1 (stereo not shown) [Example 2] | 2.30
* CC#CC(=O)N1CCC[C@]2(C1)C[C@@H](n1nc(-c3ccc(COC)cc3)c(C(N)=O)c1N)C2 [Example 8] | 2.20
* CCC#CC(=O)N1CC[C@]2(C1)C[C@H](n1nc(-c3ccc(COC)cc3)c(C(N)=O)c1N)C2 [Example 12] | -0.05

Please report log10(IC50) for every entry that follows.
1. CC#CC(=O)N1CC[C@]2(C1)C[C@H](n1nc(-c3ccc(CO)cc3)c(C(N)=O)c1N)C2 [Example 21]
2. CC#CC(=O)N1CC[C@]2(C1)C[C@H](n1nc(-c3ccc(S(C)(=O)=O)cc3)c(C(N)=O)c1N)C2 [Example 27]
3. C=CC(=O)N1CC[C@]2(C1)C[C@H](n1nc(-c3ccc(COC)cc3)c(C(N)=O)c1N)C2 [Example 4]
4. CCC#CC(=O)N1CC[C@]2(C1)C[C@H](n1nc(-c3ccc(C(C)OCC)cc3)c(C(N)=O)c1N)C2 (stereo partly shown) [Example 16]

1. 0.40
2. 1.08
3. 1.41
4. 0.26
